Target sequence: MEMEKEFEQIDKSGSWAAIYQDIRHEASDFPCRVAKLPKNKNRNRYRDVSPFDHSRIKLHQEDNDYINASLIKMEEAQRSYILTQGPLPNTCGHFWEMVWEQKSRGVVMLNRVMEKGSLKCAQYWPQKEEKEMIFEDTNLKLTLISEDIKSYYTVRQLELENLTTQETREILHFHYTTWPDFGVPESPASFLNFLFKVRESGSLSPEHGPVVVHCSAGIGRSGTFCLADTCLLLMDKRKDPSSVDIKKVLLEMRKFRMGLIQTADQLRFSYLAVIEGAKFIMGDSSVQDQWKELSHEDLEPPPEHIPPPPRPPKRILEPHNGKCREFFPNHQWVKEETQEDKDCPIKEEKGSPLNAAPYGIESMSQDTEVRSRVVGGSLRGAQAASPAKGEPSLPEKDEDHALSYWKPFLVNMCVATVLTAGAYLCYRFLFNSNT
pIC50: −log10 of the molar value.

[
  {
    "molecule": "CCc1cc(C[C@H]2NC(=O)CN(CCCCOc3cccc(O)c3C(=O)OC)C2=O)ccc1N(C(=O)C(=O)O)c1ccccc1C(=O)O [OXALYLAMINOBENZOIC ACID]",
    "pIC50": 7.42
  },
  {
    "molecule": "O=C(O)c1cccc2c1oc1ccc(-c3csc(-c4cccc(I)c4)n3)cc12",
    "pIC50": 6.37
  },
  {
    "molecule": "O=C(O)/C=C/c1cccc(-c2nc(-c3ccc4oc5c(C(=O)O)cccc5c4c3)cs2)c1",
    "pIC50": 6.26
  },
  {
    "molecule": "O=C(O)c1cccc2c1oc1ccc(-c3csc(-c4ccc(N5CCCC5)cc4)n3)cc12",
    "pIC50": 7.09
  }
]

Cited source for all entries: ChEMBL document CHEMBL1240470
